# target of assay: Cholecystokinin receptor type A (Cavia porcellus)
# protocol text: Ability to displace 1 nM [3H]pCCK-8 from Cholecystokinin type A receptor in guinea pig pancreatic membranes
Non-standard residues stand in square brackets, D forms with d. Residues, ends and D or L forms follow the SMILES beside them. *: point of attachment. NMeNle = CCCC[C@H](NC)C(=O)O; X1 = CCCCCNC(=O)CC(=O)*
endpoint name: pKi
FYI, pKi means -log10 of a concentration in mol per litre.

Look up pKi with Cholecystokinin receptor type A (Cavia porcellus) for this compound: CCCCCNC(=O)CC(=O)N[C@@H](Cc1c[nH]c2ccccc12)C(=O)N(C)[C@@H](CCCC)C(=O)N[C@@H](CC(=O)O)C(=O)N[C@@H](Cc1ccccc1)C(N)=O (X1-W[NMeNle]DF-NH2)
5.44
